Reported Kd is given for each of the following binders.
- Test Target: T1, human CD33 (human, UniProt P20138 18-259, limits assumed)
- T1 construct: Human CD33 immobilized on the BLI sensor tip or the BIAcore C1 chip; also called Siglec-3
- T1 sequence (P20138 18-259 limits assumed): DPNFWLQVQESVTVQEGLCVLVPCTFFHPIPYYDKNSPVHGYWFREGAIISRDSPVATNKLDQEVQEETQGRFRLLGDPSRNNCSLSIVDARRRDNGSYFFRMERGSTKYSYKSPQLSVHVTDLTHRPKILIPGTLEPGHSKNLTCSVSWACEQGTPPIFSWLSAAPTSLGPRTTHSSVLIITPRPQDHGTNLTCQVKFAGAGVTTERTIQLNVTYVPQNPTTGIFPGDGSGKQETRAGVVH
- Protocol: BLI (ForteBio), Fab 100 nM on immobilized CD33
Give just the number in nM; leave the unit off.

AB-64.1.3 (antibody, V domains shown, Variant of AB-64.1) VH: QVQLVQSGAEVKKPGASVKISCKASGYTFTDYNLHWVRQAPGQGLEWIGFIYPSNVITGYAQKFQGRATLTVDNSTSTAYMELSSLRSEDTAVYYCARSDVDYFDYWGQGTLLTVSS VL: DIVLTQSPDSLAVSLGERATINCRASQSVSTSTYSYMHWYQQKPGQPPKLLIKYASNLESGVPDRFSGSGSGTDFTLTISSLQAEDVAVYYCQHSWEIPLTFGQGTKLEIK : 0.647
AB-64.1.11 (antibody, V domains shown, Variant of AB-64.1) VH: QVQLVQSGAEVKKPGASVKISCKASGYTFTDYNLHWVRQAPGQGLEWIGFIYPSNRITGYAQKFQGRATLTVDQSTSTAYMELSSLRSEDTAVYYCARSDVDYFDYWGQGTLLTVSS VL: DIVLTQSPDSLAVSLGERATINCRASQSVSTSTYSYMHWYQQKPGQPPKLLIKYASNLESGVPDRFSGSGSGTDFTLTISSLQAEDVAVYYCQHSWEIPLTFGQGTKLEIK : 1.15
AB-64.1.15 (antibody, V domains shown, Variant of AB-64.1) VH: QVQLVQSGAEVKKPGASVKISCKASGYTFTDYNLHWVRQAPGQGLEWIGFIYPSNVITGYAQKFQGRATLTVDNSASTAYMELSSLRSEDTAVYYCARSDVDYFDYWGQGTLLTVSS VL: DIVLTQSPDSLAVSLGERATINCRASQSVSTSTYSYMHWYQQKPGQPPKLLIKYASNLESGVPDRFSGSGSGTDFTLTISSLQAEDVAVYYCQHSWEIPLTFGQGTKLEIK : 0.412

Now examine the next entry.
Item AB-64.1.2 (antibody, V domains shown, Variant of AB-64.1) VH: QVQLVQSGAEVKKPGASVKISCKASGYTFTDYNLHWVRQAPGQGLEWIGFIYPSNRITGYAQKFQGRATLTVDNSTSTAYMELSSLRSEDTAVYYCARSDVDYFDYWGQGTLLTVSS VL: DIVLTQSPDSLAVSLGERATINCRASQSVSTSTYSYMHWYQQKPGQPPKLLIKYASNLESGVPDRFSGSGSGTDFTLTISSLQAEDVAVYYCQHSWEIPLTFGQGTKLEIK : provide Kd
0.902
